system: Saccharomyces cerevisiae; assay: Antimicrobial activity against Saccharomyces cerevisiae YCG198 harboring Saccharomyces cerevisiae Y8205 MATalpha PDR1delta::NAT PDR3 delta::URA3 assessed as growth inhibition after 18 hrs; type: functional, organism-based; details: YCG198, 18 h
experimental_endpoint: IC50 (µM)
Numbers only, in µM.

Given the compound COc1c(O)c(C)c(C/C=C(\C)CCCCCCc2ccccc2)oc1=O [LEHUALIDE F] , what is its reported IC50?
44
